These data points were gathered from the supplement of paper PMC11061612.

# Tested on: NCI-H596 (Other Solid Carcinomas)
# assay details: combination Emax (second highest fraction inhibited in the dose matrix, 72 h); higher = more inhibition; extreme values may be limits of the assay
metric: combination Emax

1) Cc1cc2ncnn2cc1Nc1ncc2c(n1)n(C1CCOCC1)c(=O)n2C [AZD7648] + CCN(CCO)CCCOc1ccc2c(Nc3cc(CC(=O)Nc4cccc(F)c4)[nH]n3)ncnc2c1 [AZD2811] (first compound max 10 µM, 7x7, partner max 1 µM) :: 0.243
2) COc1nnc2ccc(N3CCC(c4ccc(OCCN5CCN(C)C(=O)[C@H]5C)cc4)CC3)nn12 [AZD5153] + CCN(CCO)CCCOc1ccc2c(Nc3cc(CC(=O)Nc4cccc(F)c4)[nH]n3)ncnc2c1 [AZD2811] (first compound max 1 µM, 7x7, partner max 1 µM) :: 0.744
3) Cc1c2c(nn1C)CSCc1cc(n(C)n1)CSc1cc(c3ccccc3c1)OCCCc1c(C(=O)O)n(C)c3c-2c(Cl)ccc13 [AZD5991] + CC1(C)CCC(CN2CCN(c3ccc(C(=O)NS(=O)(=O)c4ccc(NCC5CCOCC5)c([N+](=O)[O-])c4)c(Oc4cnc5[nH]ccc5c4)c3)CC2)=C(c2ccc(Cl)cc2)C1 [Venetoclax] (first compound max 1 µM, 7x7, partner max 1 µM) :: 0.289
4) Cn1cnc2c(F)c(Nc3ccc(Br)cc3Cl)c(C(=O)NOCCO)cc21 [Selumetinib] + C=CCn1c(=O)c2cnc(Nc3ccc(N4CCN(C)CC4)cc3)nc2n1-c1cccc(C(C)(C)O)n1 [AZD1775] (first compound max 10 µM, partner max 1 µM) :: 0.223
5) Cn1cnc2c(F)c(Nc3ccc(Br)cc3Cl)c(C(=O)NOCCO)cc21 [Selumetinib] + CC(C)n1c(=O)n(C)c2cnc3cc(F)c(-c4ccc(OCCCN5CCCCC5)nc4)cc3c21 [AZD1390] (first compound max 10 µM, 7x7, partner max 0.3 µM) :: 0.21
